# Test system: Pseudomonas aeruginosa
# ASSAY_DETAILS: Bactericidal activity against Pseudomonas aeruginosa ATCC 27853 assessed as eradication of pre-formed biofilm at 50 times MIC after 24 hrs by serial dilution
# Assay type: functional
// reported log10cfu per item
MEASURED_ATTRIBUTE: log10cfu

[[record]]
compound = "C[C@H]1COc2c(N3CCN(C)CC3)c(F)cc3c(=O)c(C(=O)O)cn1c23.C[C@H]1COc2c(N3CCN(C)CC3)c(F)cc3c(=O)c(C(=O)O)cn1c23.O [LEVOFLOXACIN]"
recorded_result = 8.69

[[record]]
compound = "CC1(C)S[C@@H]2[C@H](NC(=O)[C@H](N)c3ccccc3)C(=O)N2[C@H]1C(=O)O [AMPICILLIN]"
recorded_result = 8.62

[[record]]
compound = "CO[C@H]1/C=C/O[C@@]2(C)Oc3c(C)c(O)c4c(O)c(c(/C=N/N5CCN(C)CC5)c(O)c4c3C2=O)NC(=O)/C(C)=C\\C=C\\[C@H](C)[C@H](O)[C@@H](C)[C@@H](O)[C@@H](C)[C@H](OC(C)=O)[C@@H]1C [RIFAMPIN]"
recorded_result = 8.56

[[record]]
compound = "CO/N=C(\\C(=O)N[C@@H]1C(=O)N2C(C(=O)O)=C(COC(C)=O)CS[C@H]12)c1csc(N)n1 [CEFOTAXIME]"
recorded_result = 8.68


---

# System: Acinetobacter baumannii
# ASSAY_DETAILS: Bactericidal activity against Acinetobacter baumannii VT 126 assessed as eradication of pre-formed biofilm at 50 times MIC after 24 hrs by serial dilution
# Assay type: functional
MEASURED_ATTRIBUTE: log10cfu

[[record]]
structure_notation = "CO/N=C(\\C(=O)N[C@@H]1C(=O)N2C(C(=O)O)=C(COC(C)=O)CS[C@H]12)c1csc(N)n1"
test_system = "Acinetobacter baumannii"
measured_attribute = "log10cfu"
recorded_result = 8.32

[[record]]
structure_notation = "CO[C@H]1/C=C/O[C@@]2(C)Oc3c(C)c(O)c4c(O)c(c(/C=N/N5CCN(C)CC5)c(O)c4c3C2=O)NC(=O)/C(C)=C\\C=C\\[C@H](C)[C@H](O)[C@@H](C)[C@@H](O)[C@@H](C)[C@H](OC(C)=O)[C@@H]1C"
test_system = "Acinetobacter baumannii"
measured_attribute = "log10cfu"
recorded_result = 8.15

[[record]]
structure_notation = "C[C@H]1COc2c(N3CCN(C)CC3)c(F)cc3c(=O)c(C(=O)O)cn1c23.C[C@H]1COc2c(N3CCN(C)CC3)c(F)cc3c(=O)c(C(=O)O)cn1c23.O"
test_system = "Acinetobacter baumannii"
measured_attribute = "log10cfu"
recorded_result = 8.26

[[record]]
structure_notation = "CC1(C)S[C@@H]2[C@H](NC(=O)[C@H](N)c3ccccc3)C(=O)N2[C@H]1C(=O)O"
test_system = "Acinetobacter baumannii"
measured_attribute = "log10cfu"
recorded_result = 8.29


---

# Test system: Haemophilus influenzae
# ASSAY_DETAILS: Antimicrobial activity against Haemophilus influenzae VT450-2006 by broth microdilution method
# Type: functional
MEASURED_ATTRIBUTE: MIC (µg/mL)

[[record]]
compound = "C[C@H]1COc2c(N3CCN(C)CC3)c(F)cc3c(=O)c(C(=O)O)cn1c23.C[C@H]1COc2c(N3CCN(C)CC3)c(F)cc3c(=O)c(C(=O)O)cn1c23.O [LEVOFLOXACIN]"
recorded_result = 0.07

[[record]]
compound = "CC[C@H]1OC(=O)[C@H](C)[C@@H](O[C@H]2C[C@@](C)(OC)[C@@H](O)[C@H](C)O2)[C@H](C)[C@@H](O[C@@H]2O[C@H](C)C[C@H](N(C)C)[C@H]2O)[C@](C)(O)C[C@@H](C)CN(C)[C@H](C)[C@@H](O)[C@]1(C)O [AZITHROMYCIN]"
recorded_result = 1

[[record]]
compound = "CC1(C)S[C@@H]2[C@H](NC(=O)[C@H](N)c3ccccc3)C(=O)N2[C@H]1C(=O)O [AMPICILLIN]"
recorded_result = 0.5

[[record]]
compound = "CO/N=C(\\C(=O)N[C@@H]1C(=O)N2C(C(=O)O)=C(COC(C)=O)CS[C@H]12)c1csc(N)n1 [CEFOTAXIME]"
recorded_result = 0.16

[[record]]
compound = "CO[C@H]1/C=C/O[C@@]2(C)Oc3c(C)c(O)c4c(O)c(c(/C=N/N5CCN(C)CC5)c(O)c4c3C2=O)NC(=O)/C(C)=C\\C=C\\[C@H](C)[C@H](O)[C@@H](C)[C@@H](O)[C@@H](C)[C@H](OC(C)=O)[C@@H]1C [RIFAMPIN]"
recorded_result = 0.8

